# target: T1, 4H3629-AA
# T1 chain: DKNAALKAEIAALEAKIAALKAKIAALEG
# test.method.notes: two-hybrid library CCmax;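 note: natural log of median RNA to DNA barcode read ratio; higher means stronger binding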
# stated.conditions: mean of both orientations
In this section we review reported interaction score values for a set of binders.
readout.kind: interaction score

1. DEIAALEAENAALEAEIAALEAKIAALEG [4H133-AA] :: 1.24
2. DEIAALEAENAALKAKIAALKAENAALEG [4H235-AA] :: -1.09
3. DKNAALEAEIAALEAKNAALKAEIAALEG [4H3129-AA] :: -0.839
4. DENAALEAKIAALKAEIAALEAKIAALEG [4H1349-AA] :: 2.08
5. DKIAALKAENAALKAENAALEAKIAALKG [4H2774-AA] :: -1.34
6. DKIAALKAEIAALEAKNAALKAKIAALEG [4H2621-AA] :: 0.71
7. DEIAALEAKIAALKAEIAALEAENAALKG [4H324-AA] :: 1.36
8. DKIAALKAENAALEAEIAALKAENAALEG [4H2699-AA] :: -0.9
9. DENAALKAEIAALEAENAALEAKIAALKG [4H1558-AA] :: 0.444
10. DKNAALKAEIAALEAEIAALKAENAALEG [4H3595-AA] :: 0.754
11. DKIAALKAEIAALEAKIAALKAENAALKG [4H2604-AA] :: 1.84
12. DKIAALKAENAALEAKIAALEAKNAALKG [4H2728-AA] :: -0.438
13. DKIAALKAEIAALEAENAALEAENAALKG [4H2580-AA] :: -0.787
14. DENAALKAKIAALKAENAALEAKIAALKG [4H1878-AA] :: 1.63
15. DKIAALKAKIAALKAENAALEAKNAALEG [4H2903-AA] :: -0.902
16. DKIAALKAKNAALEAEIAALEAENAALEG [4H2947-AA] :: -1.56
17. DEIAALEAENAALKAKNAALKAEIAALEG [4H249-AA] :: -1.69
18. DKNAALEAKIAALKAENAALEAKIAALKG [4H3414-AA] :: 0.922
19. DKNAALEAEIAALEAENAALEAKIAALKG [4H3094-AA] :: -0.24
20. DKNAALEAKIAALKAKNAALKAEIAALEG [4H3449-AA] :: -1.65
21. DENAALKAKIAALKAKNAALKAEIAALEG [4H1913-AA] :: -1.21
22. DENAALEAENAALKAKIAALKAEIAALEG [4H1257-AA] :: 0.329
23. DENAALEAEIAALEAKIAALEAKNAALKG [4H1064-AA] :: 0.654
24. DEIAALEAKIAALKAENAALEAKIAALEG [4H341-AA] :: 2.2
25. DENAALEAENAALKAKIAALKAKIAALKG [4H1262-AA] :: -0.649
26. DKNAALKAEIAALEAKIAALEAENAALEG [4H3619-AA] :: 0.411
27. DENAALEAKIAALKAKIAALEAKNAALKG [4H1384-AA] :: 0.973
